# Test system: NCI-H460
# assay-details: cells
# condition-label: Homo sapiens, NCI-H460, 48 h
# Description: Antiproliferative activity against human NCI-H460 cells assessed as inhibition of cell growth incubated for 48 hrs by propidium iodide staining based fluorometer assay
The reader will find reported IC50 values listed item by item below.

# compound, assay-target, IC50 [µM]
rows = [
    ("COc1cc(/C=C2\\CCC/C(=C\\c3cc(OC)c(OC)c(OC)c3Br)C2=NO)c(Br)c(OC)c1OC", "NCI-H460", 2.5),
    ("COc1cc(/C=C2\\CN(C)C/C(=C\\c3cc(OC)c(OC)c(OC)c3Br)C2=O)c(Br)c(OC)c1OC", "NCI-H460", 1.8),
    ("COc1ccc(/C=C2\\CNC/C(=C\\c3ccc(OC)c(OC)c3Cl)C2=O)c(Cl)c1OC", "NCI-H460", 7.2),
    ("CCN(CC)CCON=C1/C(=C/c2cc(OC)c(OC)c(OC)c2Br)CC(C)C/C1=C\\c1cc(OC)c(OC)c(OC)c1Br (centres undefined)", "NCI-H460", 4.1),
    ("COc1cc(/C=C2\\CCc3c(O)cccc3C2=O)c(Br)c(OC)c1OC", "NCI-H460", 1.9),
    ("COc1cccc(/C=C2\\CC(C)c3ccccc3C2=O)c1Cl (centres undefined)", "NCI-H460", 9.6),
    ("COc1cc(/C=C2\\CCc3c(O)cccc3\\C2=N\\O)c(Br)c(OC)c1OC", "NCI-H460", 1.3),
    ("CCN(CC)CCO/N=C1\\C(=C\\c2cc(OC)c(OC)c(OC)c2Br)CCc2ccc([N+](=O)[O-])cc21", "NCI-H460", 4.6),
    ("CCN(CC)CCO/N=C1\\C(=C\\c2ccc(OC)c(OC)c2Cl)CCc2ccc([N+](=O)[O-])cc21", "NCI-H460", 7.2),
]
